molecular target: Full-length, GST-tagged, human CaMKIIδ (Homo sapiens); construct: Full-Length, Glutathione-S-Transferase(GST)-Tagged, Human CaMKIIδ was purchased from Carna Biosciences; purchased Carna Biosciences 02-111; assay: CaMKIIδ binding assay (TR-FRET with BODIPY-labeled probe ligand); conditions: CaMKIIδ binding assay, results of Table 2
Sequence (Q13557 1-478 isoform Q13557-12): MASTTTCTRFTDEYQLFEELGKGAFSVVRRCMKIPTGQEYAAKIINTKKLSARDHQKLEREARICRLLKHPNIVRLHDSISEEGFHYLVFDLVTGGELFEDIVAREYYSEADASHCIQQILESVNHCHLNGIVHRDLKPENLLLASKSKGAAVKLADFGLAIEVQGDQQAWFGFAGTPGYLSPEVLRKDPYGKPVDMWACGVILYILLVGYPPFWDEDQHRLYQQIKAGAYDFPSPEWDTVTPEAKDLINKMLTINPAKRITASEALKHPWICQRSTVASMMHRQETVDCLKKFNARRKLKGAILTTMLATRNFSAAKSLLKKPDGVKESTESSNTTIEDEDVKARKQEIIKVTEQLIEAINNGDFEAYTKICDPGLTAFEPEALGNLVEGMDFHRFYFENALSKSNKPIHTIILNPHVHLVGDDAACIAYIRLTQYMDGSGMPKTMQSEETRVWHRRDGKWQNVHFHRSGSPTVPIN
pIC50: −log10 of the molar value.
# Lookup of reported pIC50 keyed by entry
measured-endpoint: pIC50

INSERT INTO measurements (compound, readout_value) VALUES
  ('COc1cc2c(cc1Nc1ncc(-c3ccc(C#N)c(O[C@@H](C)Cn4cnnn4)c3)cn1)CCN(C(=O)C(F)(F)F)C2 [Example 458]', '7.00 to 8.00'),
  ('COc1cc2c(cc1Nc1ncc(-c3ccc(Cl)c(O[C@@H](C)Cn4cnnn4)c3)cn1)C(=O)N(CC1COC1)C2 [Example 445]', '7.00 to 8.00'),
  ('COc1ccc(N2CCN(C3COC3)CC2)cc1Nc1ncc(-c2ccc(Cl)c(O[C@@H](C)Cn3cnnn3)c2)cn1 [Example 576]', '7.00 to 8.00'),
  ('COc1cnc(N2CCC(C)(O)CC2)cc1Nc1ncc(-c2ccc(Cl)c(O[C@@H](C)Cn3cnnn3)c2)cn1 [Example 481]', '7.00 to 8.00'),
  ('COc1ccc(N2CCN(CC(N)=O)CC2)cc1Nc1ncc(-c2ccc(Cl)c(O[C@@H](C)Cn3cnnn3)c2)cn1 [Example 579]', '> 8.00'),
  ('COC1CCC(N2CCC(n3cc(Nc4ncc(-c5ccc(Cl)c(OC(C)Cn6cnnn6)c5)cn4)c(C(F)(F)F)n3)CC2)CC1 (single isomer, unassigned; less polar) [Example 568]', '> 8.00');

###

biological target: Full-length, GST-tagged, human CaMKIIδ (Homo sapiens); construct: Full-Length, Glutathione-S-Transferase(GST)-Tagged, Human CaMKIIδ was purchased from Carna Biosciences; purchased Carna Biosciences 02-111; assay: CaMKIIδ binding assay (TR-FRET with BODIPY-labeled probe ligand); details: Table 2; CaMKIIδ binding assay, activity given as class A/B/C
pIC50: −log10 of the molar value.
measured-endpoint: pIC50

INSERT INTO measurements (compound, readout_value) VALUES
  ('C[C@@H](Cn1cnnn1)Oc1cc(-c2cnc(Nc3cn([C@H]4CC[C@H](N5CCC(F)(F)C5)CC4)nc3OC3COC3)nc2)ccc1Cl', '> 8.00'),
  ('C[C@@H](Cn1cnnn1)Oc1cc(-c2cnc(Nc3cn(C4CCC(CC(N)=O)CC4)nc3C(F)(F)F)nc2)ccc1Cl (stereo partly drawn)', '≤ 7.00'),
  ('C[C@@H](Cn1cnnn1)Oc1cc(-c2cnc(Nc3ccn(C)n3)nc2)ccc1Cl', '7.00 to 8.00'),
  ('C[C@@H](Cn1cnnn1)Oc1cc(-c2cnc(Nc3cn(CC(C)(C)O)nc3OCC(F)(F)F)nc2)ccc1Cl', '> 8.00'),
  ('CCn1cc(Nc2ncc(-c3ccc(C#N)c(O[C@@H](C)Cn4cnnn4)c3)cn2)c(OCC(F)(F)F)n1', '> 8.00'),
  ('C[C@@H](Cn1cnnn1)Oc1cc(-c2cnc(Nc3cn([C@H]4CC[C@@H](N5CC6(COC6)C5)CC4)nc3OCC(F)F)nc2)ccc1Cl', '> 8.00'),
  ('C[C@@H](Cn1cnnn1)Oc1cc(-c2cnc(Nc3cn([C@H]4CC[C@H](N5CCOCC5)CC4)nc3OC[C@@H]3CC3(F)F)nc2)ccc1Cl', '> 8.00'),
  ('COc1ccc(-n2cc(Nc3ncc(-c4ccc(Cl)c(O[C@@H](C)Cn5cnnn5)c4)cn3)c(C(F)(F)F)n2)cn1', '≤ 7.00'),
  ('C[C@H](O)Cn1cc(Nc2ncc(-c3ccc(Cl)c(O[C@@H](C)Cn4cnnn4)c3)cn2)c(OCC(F)(F)F)n1', '> 8.00');
